Source: PubChem BioAssay (NCI)

# Test system: HCT-15 colon
# PROCEDURE_SUMMARY: NCI tumour cell line growth inhibition, 48 h; in the data active = GI50 below about 0.43 µM; inactive = the rest
Where a SMILES comes first, the peptide text is derived from it. Bridges are numbered along the chain shown (N, C = ends). [ ]: non-standard residue; d: D form. The star is where a group is joined. ξ: configuration not given here. ξDab(CH2SO3H) = NC(CCNCS(=O)(=O)O)C(=O)O; Heptanoyl(6-Me) = CC(C)CCCCC(=O)*; Dab = NCC[CH](N)C(=O)O
Answer with one of the outcomes active, inactive

[
  {
    "COMPOUND": "COc1cc(C(=O)N2CCN(c3ccccc3)CC2)c2ccccc2n1",
    "ASSIGNED_LABEL": "active"
  },
  {
    "COMPOUND": "CCC(C)C1NC(=O)C(CCNCS(=O)(=O)O)NC(=O)C(NC(=O)C(CCNCS(=O)(=O)O)NC(=O)C(NC(=O)C(CCNCS(=O)(=O)O)NC(=O)CCCCC(C)C)C(C)O)CCNC(=O)C(C(C)O)NC(=O)C(CCNCS(=O)(=O)O)NC(=O)C(CCNCS(=O)(=O)O)NC(=O)C(C(C)CC)NC1=O (stereo not given) ({Heptanoyl(6-Me)}-[ξDab(CH2SO3H)]T[ξDab(CH2SO3H)][Dab][ξDab(CH2SO3H)]II[ξDab(CH2SO3H)][ξDab(CH2SO3H)]T; lactam 4-C; configuration not given here)",
    "ASSIGNED_LABEL": "inactive"
  },
  {
    "COMPOUND": "N#C[Se]CCN1C(=O)C2C(C1=O)[C@H]1C=C[C@@H]2S1 (stereo not given in full)",
    "ASSIGNED_LABEL": "inactive"
  },
  {
    "COMPOUND": "COc1ccc(Cn2cc3c(c2-c2ccccc2)CCc2cnoc2-3)cc1OC",
    "ASSIGNED_LABEL": "inactive"
  },
  {
    "COMPOUND": "CCCCCCCCCCCC(=O)N1CCN(C(C)=O)CC1",
    "ASSIGNED_LABEL": "inactive"
  },
  {
    "COMPOUND": "CCCCCCCCCCCCSC1=C(Cl)C(=O)C(OC)=C(OC)C1=O",
    "ASSIGNED_LABEL": "inactive"
  },
  {
    "COMPOUND": "COCCNc1ccc2c3c(cccc13)C(=O)N(CCN(C)C)C2=O",
    "ASSIGNED_LABEL": "inactive"
  },
  {
    "COMPOUND": "COc1ccc(Nc2cc(C)nc(NCc3ccccc3)n2)cc1",
    "ASSIGNED_LABEL": "inactive"
  },
  {
    "COMPOUND": "C[C@@H](NC(=O)/C(C#N)=C/c1ccc([N+](=O)[O-])cc1)c1ccccc1",
    "ASSIGNED_LABEL": "inactive"
  },
  {
    "COMPOUND": "C=C1C(=O)O[C@H]2[C@H]1CC/C(C=Nc1c(N)cc(C(F)(F)F)cc1C(F)(F)F)=C\\CC[C@@]1(C)O[C@@H]21",
    "ASSIGNED_LABEL": "inactive"
  }
]

State the result this test recorded for COc1ccc2cc(C(=O)/C=C/c3ccc(N(C)C)cc3)ccc2c1 . inactive
